Would you kindly list clearance for each of these compounds?
- protocol_details: Clearance in Sprague-Dawley rat at 5 mg/kg, iv measured up to 24 hrs by LC-MS/MS analysis
- Format: ADME, organism-based
- measurement_conditions: in vivo
Lab book: enter the figure in mL/min/kg, no units written.

Dear colleague, please send me the reported clearance for `O=C1NCCC12CCN(c1c(Cl)cncc1-c1cc3ccccc3o1)CC2` when you can.
23.2

Dear colleague, please send me the reported clearance for `Cn1cc(-c2ccc(-c3cncc(Cl)c3N3CCC4(CCNC4=O)CC3)cc2)cn1` when you can.
20

---

- protocol_details: AUC in BALB/c mouse at 10 mg/kg, po measured up to 24 hrs by LC-MS/MS analysis
- measurement_conditions: in vivo
value_kind: AUC at 24 h (µM·h)
Lab book: enter the figure in µM·h, no units written.

Dear colleague, please send me the reported AUC at 24 h for `O=C1NCCC12CCN(c1c(Cl)cncc1-c1cc3ccccc3o1)CC2` when you can.
2.3

---

- protocol_details: Half life in BALB/c mouse at 10 mg/kg, po measured up to 24 hrs by LC-MS/MS analysis
- measurement_conditions: in vivo
value_kind: half-life
Just so you know, I need the unit written after the number.

Dear colleague, please send me the reported half-life for `O=C1NCCC12CCN(c1c(Cl)cncc1-c1cc3ccccc3o1)CC2` when you can.
1.11 h

---

- protocol_details: Tmax in BALB/c mouse at 10 mg/kg, po measured up to 24 hrs by LC-MS/MS analysis
- measurement_conditions: in vivo
value_kind: Tmax (min)
Lab book: enter the figure in min, no units written.

Dear colleague, please send me the reported Tmax for `O=C1NCCC12CCN(c1c(Cl)cncc1-c1cc3ccccc3o1)CC2` when you can.
25.2

---

- measured_target: CDK9/cyclin T1 (Homo sapiens)
- Sequence (O60563 whole entry): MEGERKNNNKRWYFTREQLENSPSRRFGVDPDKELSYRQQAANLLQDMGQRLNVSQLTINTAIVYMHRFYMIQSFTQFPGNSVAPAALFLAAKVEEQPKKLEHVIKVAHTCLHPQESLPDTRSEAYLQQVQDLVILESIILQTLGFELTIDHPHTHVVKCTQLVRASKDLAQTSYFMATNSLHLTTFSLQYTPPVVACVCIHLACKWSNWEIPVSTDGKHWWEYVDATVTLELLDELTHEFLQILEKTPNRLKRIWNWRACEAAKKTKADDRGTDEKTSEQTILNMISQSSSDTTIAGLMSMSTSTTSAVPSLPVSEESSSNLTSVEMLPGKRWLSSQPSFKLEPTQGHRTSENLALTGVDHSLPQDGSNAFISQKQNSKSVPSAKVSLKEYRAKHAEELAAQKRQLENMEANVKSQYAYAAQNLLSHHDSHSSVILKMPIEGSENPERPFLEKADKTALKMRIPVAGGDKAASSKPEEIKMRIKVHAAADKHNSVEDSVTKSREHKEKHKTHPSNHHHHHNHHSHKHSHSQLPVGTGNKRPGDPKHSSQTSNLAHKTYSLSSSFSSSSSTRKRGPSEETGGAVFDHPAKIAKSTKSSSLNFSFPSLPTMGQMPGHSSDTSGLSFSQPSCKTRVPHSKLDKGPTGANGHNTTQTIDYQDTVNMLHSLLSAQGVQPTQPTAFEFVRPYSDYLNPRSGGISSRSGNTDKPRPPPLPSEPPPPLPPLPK
- Sequence (P50750 whole entry): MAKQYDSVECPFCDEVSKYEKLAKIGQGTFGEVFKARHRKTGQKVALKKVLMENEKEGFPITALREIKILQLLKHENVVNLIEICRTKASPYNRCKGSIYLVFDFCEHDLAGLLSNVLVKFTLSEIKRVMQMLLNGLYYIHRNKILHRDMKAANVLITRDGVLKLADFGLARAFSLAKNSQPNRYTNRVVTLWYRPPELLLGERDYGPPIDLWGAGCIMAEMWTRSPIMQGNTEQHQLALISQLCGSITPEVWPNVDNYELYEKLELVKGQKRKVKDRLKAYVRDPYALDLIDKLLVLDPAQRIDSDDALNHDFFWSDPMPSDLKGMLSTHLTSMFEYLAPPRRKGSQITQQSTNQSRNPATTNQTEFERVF
- protocol_details: Inhibition of CDK9/Cyclin T1 (unknown origin)
value_kind: Ki

Dear colleague, please send me the reported Ki for `O=C1NCCC12CCN(c1c(Cl)cncc1-c1cc3ccccc3o1)CC2` when you can.
1.77 µM

---

- protocol_details: Oral bioavailability in Sprague-Dawley rat at 20 mg/kg measured up to 24 hrs by LC-MS/MS analysis
- Format: ADME, organism-based
- measurement_conditions: in vivo
Would you kindly list bioavailability for each of these molecules?
Just so you know, I need the unit written after the number.

Dear colleague, please send me the reported bioavailability for `Cn1cc(-c2ccc(-c3cncc(Cl)c3N3CCC4(CCNC4=O)CC3)cc2)cn1` when you can.
41%

Dear colleague, please send me the reported bioavailability for `O=C1NCCC12CCN(c1c(Cl)cncc1-c1cc3ccccc3o1)CC2` when you can.
38%

---

- protocol_details: Cmax in BALB/c mouse at 2 mg/kg, iv measured up to 24 hrs by LC-MS/MS analysis
- measurement_conditions: in vivo
value_kind: Cmax (µM)
Lab book: enter the figure in µM, no units written.

Dear colleague, please send me the reported Cmax for `O=C1NCCC12CCN(c1c(Cl)cncc1-c1cc3ccccc3o1)CC2` when you can.
3.44

---

- protocol_details: Dissociation constant, pKa of the compound by UV spectrometric titration method
- Assay type: physicochemical
value_kind: pKa

Dear colleague, please send me the reported pKa for `O=C1NCCC12CCN(c1c(Cl)cncc1-c1cc3ccccc3o1)CC2` when you can.
4.9

---

- System: MV4-11
- protocol_details: Growth inhibition of human MV4-11 cells after 72 hrs by resazurin staining based assay
- Type: functional
value_kind: GI50

GET GI50 | system: MV4-11 | item: `O=C1NCCC12CCN(c1c(Cl)cncc1-c1cccc3ccccc13)CC2`
0.82 µM

GET GI50 | system: MV4-11 | item: `O=C1NCCC12CCN(c1c(Cl)cncc1-c1cccc3ccncc13)CC2`
64.2 µM

GET GI50 | system: MV4-11 | item: `O=C1NCCC12CCN(c1c(Cl)cncc1-c1cn(Cc3ccccc3)c3ncccc13)CC2`
30.6 µM

GET GI50 | system: MV4-11 | item: `Cn1c(-c2cncc(Cl)c2N2CCC3(CCNC3=O)CC2)cc2ccccc21`
10.1 µM

GET GI50 | system: MV4-11 | item: `Cn1cc2c(-c3cncc(Cl)c3N3CCC4(CCNC4=O)CC3)cccc2n1`
5.26 µM

GET GI50 | system: MV4-11 | item: `Cn1cc(-c2ccc(-c3cncc(Cl)c3N3CCC4(CCNC4=O)CC3)cc2)cn1`
0.03 µM

GET GI50 | system: MV4-11 | item: `O=C1NCCC12CCN(c1c(Cl)cncc1-c1cccc3ncccc13)CC2`
3.65 µM

GET GI50 | system: MV4-11 | item: `Cn1ncc2cc(Nc3cncc(Cl)c3N3CCC4(CCNC4=O)CC3)ccc21`
1.71 µM

GET GI50 | system: MV4-11 | item: `O=C1NCCC12CCN(c1c(Cl)cncc1-c1cccc3cnccc13)CC2`
62.3 µM

GET GI50 | system: MV4-11 | item: `O=C1NCCC12CCN(c1c(Cl)cncc1-c1coc3ccccc13)CC2`
29.2 µM

GET GI50 | system: MV4-11 | item: `O=C1NCCC12CCN(c1c(Cl)cncc1-c1cnn(Cc3ccccc3)c1)CC2`
5.34 µM

GET GI50 | system: MV4-11 | item: `O=C1NCCC12CCN(c1c(Cl)cncc1-c1cnn(-c3ccccc3)c1)CC2`
0.84 µM

GET GI50 | system: MV4-11 | item: `O=C1NCCC12CCN(c1c(Cl)cncc1-c1cc3ccccc3o1)CC2`
0.36 µM

GET GI50 | system: MV4-11 | item: `O=C1NCCC12CCN(c1c(Cl)cncc1-c1c[nH]c3ncccc13)CC2`
7.82 µM

GET GI50 | system: MV4-11 | item: `O=C1NCCC12CCN(c1c(Cl)cncc1-c1cccc3c1oc1ccccc13)CC2`
6.68 µM

GET GI50 | system: MV4-11 | item: `Cc1ccc(-c2cncc(Cl)c2N2CCC3(CCNC3=O)CC2)c2ccccc12`
0.71 µM

GET GI50 | system: MV4-11 | item: `O=C1NCCC12CCN(c1c(Cl)cncc1-c1cccc3cccnc13)CC2`
9.15 µM

GET GI50 | system: MV4-11 | item: `COc1ccc(-c2cncc(Cl)c2N2CCC3(CCNC3=O)CC2)c2ccccc12`
33.2 µM

GET GI50 | system: MV4-11 | item: `O=C1NCCC12CCN(c1c(Cl)cncc1-c1cc3ccccc3[nH]1)CC2`
6.84 µM

GET GI50 | system: MV4-11 | item: `CNC(=O)c1ccn(-c2c(Cl)cncc2-c2ccc(-c3cnn(C)c3)cc2)c1`
35 µM

GET GI50 | system: MV4-11 | item: `O=C1NCCC12CCN(c1c(Cl)cncc1-c1cccc3[nH]ccc13)CC2`
1.91 µM

GET GI50 | system: MV4-11 | item: `Cn1ncc2c(-c3cncc(Cl)c3N3CCC4(CCNC4=O)CC3)cccc21`
27.7 µM

GET GI50 | system: MV4-11 | item: `O=C1NCCC12CCN(c1c(Cl)cncc1-c1c[nH]c3ccccc13)CC2`
8.77 µM

GET GI50 | system: MV4-11 | item: `O=C1NCCC12CCN(c1c(Cl)cncc1-c1cccc3c1sc1ccccc13)CC2`
6.35 µM

GET GI50 | system: MV4-11 | item: `O=C1NCCC12CCN(c1c(Cl)cncc1-c1cn(S(=O)(=O)c3ccccc3)c3ncccc13)CC2`
40.2 µM

GET GI50 | system: MV4-11 | item: `O=C1NCCC12CCN(c1c(Cl)cncc1-c1csc3ccccc13)CC2`
0.35 µM

GET GI50 | system: MV4-11 | item: `CC(C)(C)OC(=O)N1CCC(n2cc(-c3cncc(Cl)c3N3CCC4(CCNC4=O)CC3)cn2)CC1`
12.2 µM

GET GI50 | system: MV4-11 | item: `O=C1NCCC12CCN(c1c(Cl)cncc1-c1cn(S(=O)(=O)c3ccccc3)c3ccccc13)CC2`
28.4 µM

GET GI50 | system: MV4-11 | item: `Cn1cc(-c2ccc(-c3cncc(Cl)c3-n3ccc(C(=O)O)c3)cc2)cn1`
87.1 µM

GET GI50 | system: MV4-11 | item: `O=C1NCCC12CCN(c1c(Cl)cncc1-c1cncc3ccccc13)CC2`
7.55 µM

GET GI50 | system: MV4-11 | item: `O=C1NCCC12CCN(c1c(Cl)cncc1-c1ccnc3ccccc13)CC2`
53.5 µM

GET GI50 | system: MV4-11 | item: `Cn1cc(-c2ccc(-c3cncc(Cl)c3-n3ccc(C(N)=O)c3)cc2)cn1`
9.58 µM

GET GI50 | system: MV4-11 | item: `O=C1NCCC12CCN(c1c(Cl)cncc1-c1cc3ccccc3s1)CC2`
0.58 µM
